# target of assay: hM4 receptors (Homo sapiens)
# Sequence (P08173 1-479): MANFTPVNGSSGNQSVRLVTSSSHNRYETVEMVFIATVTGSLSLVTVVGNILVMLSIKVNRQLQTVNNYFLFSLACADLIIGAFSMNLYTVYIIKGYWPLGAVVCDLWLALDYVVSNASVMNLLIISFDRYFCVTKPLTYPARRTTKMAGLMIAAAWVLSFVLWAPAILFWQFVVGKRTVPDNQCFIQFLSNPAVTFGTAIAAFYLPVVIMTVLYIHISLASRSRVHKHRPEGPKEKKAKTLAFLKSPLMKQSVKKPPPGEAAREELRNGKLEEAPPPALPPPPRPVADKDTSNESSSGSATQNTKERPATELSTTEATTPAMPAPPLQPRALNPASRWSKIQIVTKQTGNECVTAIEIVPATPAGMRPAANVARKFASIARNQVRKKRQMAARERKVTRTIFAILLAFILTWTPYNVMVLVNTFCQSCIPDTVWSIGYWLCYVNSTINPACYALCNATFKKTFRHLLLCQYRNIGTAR
# test method notes: Human M4 PAM pERK assay
# experimental parameters: CHO cells expressing hM4; with EC20 of acetylcholine (10 nM final)
pEC50: −log10 of the molar value.
reported endpoint: pEC50

Sample records with pEC50:
1) Cc1c2c(n(C)c(=O)c1C)CN(C(=O)CC1CC1c1cc(F)cc(F)c1)C2 (single isomer, unassigned) [Compound I-23]; > 7.00
2) COc1c2c(n(C)c(=O)c1C)CN(C(=O)CC1CC1c1ccc(C(F)(F)F)cc1)C2 (single isomer, unassigned) [Compound I-29]; 6.30 to 7.00
3) Cc1c2c(n(C)c(=O)c1Cl)CN(C(=O)CC1CC1c1ccc(C(F)(F)F)cc1)C2 (single isomer, unassigned) [Compound I-33]; > 7.00
4) Cc1cc(=O)n(C)c2c1CN(C(=O)CC1CC1c1ccc(C(F)(F)F)nc1)C2 (single isomer, unassigned) [Compound I-5]; 6.30 to 7.00
5) Cc1c2c(n(C)c(=O)c1Cl)CN(C(=O)CC1CC1c1cc(F)cc(F)c1)C2 (single isomer, unassigned) [Compound I-36]; > 7.00

Find the recorded pEC50 belonging to Cc1c2c(n(C)c(=O)c1C)CN(C(=O)CC1CC1c1ccc(C(F)(F)F)cc1)C2 (single isomer, unassigned) [Compound I-20] and report it.
6.30 to 7.00
